All figures here come from patent US20220089784A1.

system.tested: BoNT/A light chain (recombinant) (Clostridium botulinum, UniProt P0DPI0 1-448)
Sequence (P0DPI0 1-448 limits assumed): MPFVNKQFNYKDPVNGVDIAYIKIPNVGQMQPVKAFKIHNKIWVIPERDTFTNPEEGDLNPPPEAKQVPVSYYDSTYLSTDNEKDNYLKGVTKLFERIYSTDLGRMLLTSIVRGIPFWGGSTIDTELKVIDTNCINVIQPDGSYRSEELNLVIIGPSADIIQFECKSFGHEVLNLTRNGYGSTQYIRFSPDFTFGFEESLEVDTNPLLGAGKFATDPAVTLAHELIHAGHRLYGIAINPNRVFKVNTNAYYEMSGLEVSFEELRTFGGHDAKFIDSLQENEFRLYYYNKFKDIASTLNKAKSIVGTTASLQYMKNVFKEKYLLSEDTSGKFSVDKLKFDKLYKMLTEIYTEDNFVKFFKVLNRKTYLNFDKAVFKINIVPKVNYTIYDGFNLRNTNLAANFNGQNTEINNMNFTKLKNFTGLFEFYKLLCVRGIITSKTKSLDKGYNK
procedure.details: KinExA, IgG
property.label: pKd
// returns pKd (minus log10 of molar concentration), number only

Reported pKd for 6A1M IgG (antibody, V domains shown, IgG converted from scFv) VH: LQLKQSGPGLVKPSQSLSLTCSVTGYSITSGYYWYWIRQFPGNKLEWMGYISYDGSNNYNPSLKNRISITRDTSKNQFFLKLNSVTTEDTATYYCARNLGLWYFDVWGTGTPLTVSS VL: EIVLTQSPAILSASPGEKVTMTCRASSSVRYMHWYQQKPGSSPKPWIYATSNLASGVPARFSGSGSGTSYSLTISRVEAEDAATYYCQQWSGNAPTFGGGTKLEIK : what is it?
8.86

Reported pKd for 6A2M IgG (antibody, V domains shown, IgG converted from scFv) VH: EVQLQQSGAELVRPGTSVKLSCKSSGYTFTSDWMHWVIQRPGQGLEWIGVIDPSDSYTNYNQKFKGKATLTVDTSSSTAYMHLSSLTSEDSAVYYCARREGHYYGKAMDYWGQGTSVTVSS VL: DIVMSQSPASLAVSLGQRATISCRASESVDYDGDSYMNWYQQKPGQPPKLLIYAASNLESGIPARFSGSGSGTDFTLNIHPVEEEDAATYYCLQSNEAPWTFGGGTKLEIK : what is it?
7.35

Reported pKd for 6A8M IgG (antibody, V domains shown, IgG converted from scFv) VH: QVQLKESGPGLVKPSQTVSLTCTVTGYSITNGNHWWNWIRQVSGSKLEWIGYISSSGYTDINPSLKSRISITRDTSKNQLFLQLNSVTTEDIATYYCARDDGYYEALDYWGQGTSVTVSS VL: DIVMSQSPAIMSASPGEKVTLTCSASSSVSSNYLYWYQQKPGSSPKLWIYSTSNLASGVPARFSGSGSGTSYSLTISRVEAEDAATYYCQQWSSNPPTFGGGTKLEIK : what is it?
8.30

Reported pKd for 6A4M IgG (antibody, V domains shown, IgG converted from scFv) VH: EVQLQQSGAELVRPGTSVKLSCKASGYTFTSYWMHWVKQRPGQGLEWIGVIDPSDSYTNYNQKFKGKATLTVDTSSSTAYMQLSSLASEDSAVYYCARYPGNRAMDYWGQGTSVTVSS VL: DIVLTQSPASLAVSLGQRATISCRASESVDYDGDSYMNWYQQKPGQPPKLLIYAASNLESGIPARFSGSGSGTDFTLNIHPVEEEDAATYYCLQSNEAPWTFGGGTKLEIK : what is it?
7.68
